I'd appreciate it if you could supply EC50 values for the items below.
Biological target: Alpha-1A adrenergic receptor (Homo sapiens, UniProt P35348)
Sequence (P35348 whole entry): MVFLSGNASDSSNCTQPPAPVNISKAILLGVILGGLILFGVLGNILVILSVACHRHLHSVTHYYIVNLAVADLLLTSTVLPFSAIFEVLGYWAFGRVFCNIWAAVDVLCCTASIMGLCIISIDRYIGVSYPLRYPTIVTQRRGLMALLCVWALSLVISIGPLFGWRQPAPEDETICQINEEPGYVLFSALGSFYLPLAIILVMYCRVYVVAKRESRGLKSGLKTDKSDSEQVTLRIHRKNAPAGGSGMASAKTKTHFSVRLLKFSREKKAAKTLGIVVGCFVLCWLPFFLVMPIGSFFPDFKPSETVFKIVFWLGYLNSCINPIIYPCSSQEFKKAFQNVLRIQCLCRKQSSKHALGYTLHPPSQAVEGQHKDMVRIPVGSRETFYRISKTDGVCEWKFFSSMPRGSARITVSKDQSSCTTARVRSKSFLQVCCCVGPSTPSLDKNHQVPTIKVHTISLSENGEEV
Assay: Antagonist activity at alpha-1A adrenergic receptor (unknown origin) incubated for 30 mins prior to agonist addition measured after 5 hrs by CCF4-AM staining-based cellular assay
Settings: read-out: EC50

Cl.O=C1CCCN1CCCCN1CCN(C(c2ccc(F)cc2)c2ccc(F)cc2)CC1 = 329 nM

As a next step, examine the compound that follows.
Request: # input compound: Cl.O=C1CCCN1CCCCN1CCN(c2ccccc2Cl)CC1 ; wanted: its EC50
Response: 138 nM

* * *

So I've got a bunch of compounds here, and I need their EC50 values.
Target: Alpha-1B adrenergic receptor (Homo sapiens)
Sequence (P35368 whole entry): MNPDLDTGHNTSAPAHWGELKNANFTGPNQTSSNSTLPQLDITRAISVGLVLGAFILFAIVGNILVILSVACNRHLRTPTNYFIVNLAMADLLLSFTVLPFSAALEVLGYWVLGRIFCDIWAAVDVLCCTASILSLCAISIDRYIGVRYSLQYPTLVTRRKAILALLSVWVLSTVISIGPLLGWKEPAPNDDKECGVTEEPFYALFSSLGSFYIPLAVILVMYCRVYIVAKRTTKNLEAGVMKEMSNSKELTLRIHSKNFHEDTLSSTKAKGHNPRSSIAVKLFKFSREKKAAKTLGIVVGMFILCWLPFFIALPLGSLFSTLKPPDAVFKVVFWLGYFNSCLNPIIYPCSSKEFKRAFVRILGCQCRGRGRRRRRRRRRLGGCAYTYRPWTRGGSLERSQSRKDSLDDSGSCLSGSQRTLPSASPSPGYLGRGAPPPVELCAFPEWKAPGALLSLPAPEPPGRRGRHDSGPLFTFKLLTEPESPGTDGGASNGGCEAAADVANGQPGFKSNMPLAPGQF
Assay: Antagonist activity at alpha-1B adrenergic receptor (unknown origin) incubated for 30 mins prior to agonist addition measured after 5 hrs by CCF4-AM staining-based cellular assay
// unit must come after the numeric part

The examples below pair each entry with its known result.
Cl.O=C1CCCN1CCCCN1CCN(c2ccccc2O)CC1 = 165 nM
Cc1ccccc1N1CCN(CCCCN2CCCC2=O)CC1.Cl = 3.5 nM
Cl.O=C1CCCN1CCCCN1CCN(c2ccc(F)cc2F)CC1 = 46.9 nM
Cl.O=C1CCCN1CCCCN1CCN(c2ccccc2Cl)CC1 = 2.53 nM
Cl.O=C1CCCN1CCCCN1CCN(C(c2ccccc2)c2ccccc2)CC1 = 289 nM

Then there is this compound:
Request: EC50 of Cl.O=C1CCCN1CCCCN1CCN(C(c2ccc(F)cc2)c2ccc(F)cc2)CC1 on Alpha-1B adrenergic receptor (Homo sapiens)?
Response: 131 nM

* * *

Biological target: Adrenergic receptor alpha-1 (Rattus norvegicus, UniProt P15823+P23944+P43140)
Sequence (P15823 whole entry): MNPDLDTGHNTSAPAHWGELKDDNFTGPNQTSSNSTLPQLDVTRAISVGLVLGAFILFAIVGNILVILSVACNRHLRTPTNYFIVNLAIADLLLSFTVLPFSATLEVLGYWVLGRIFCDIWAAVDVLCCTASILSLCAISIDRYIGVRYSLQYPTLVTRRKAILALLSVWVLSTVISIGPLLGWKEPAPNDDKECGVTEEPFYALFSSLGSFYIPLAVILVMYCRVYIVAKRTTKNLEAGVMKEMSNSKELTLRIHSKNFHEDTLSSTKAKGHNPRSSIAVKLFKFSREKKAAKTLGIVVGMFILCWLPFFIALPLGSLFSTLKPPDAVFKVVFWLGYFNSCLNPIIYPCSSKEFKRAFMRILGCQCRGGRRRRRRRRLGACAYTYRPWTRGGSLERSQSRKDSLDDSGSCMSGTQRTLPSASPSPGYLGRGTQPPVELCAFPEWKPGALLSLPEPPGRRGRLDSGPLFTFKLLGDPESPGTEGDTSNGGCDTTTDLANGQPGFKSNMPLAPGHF
Sequence (P23944 whole entry): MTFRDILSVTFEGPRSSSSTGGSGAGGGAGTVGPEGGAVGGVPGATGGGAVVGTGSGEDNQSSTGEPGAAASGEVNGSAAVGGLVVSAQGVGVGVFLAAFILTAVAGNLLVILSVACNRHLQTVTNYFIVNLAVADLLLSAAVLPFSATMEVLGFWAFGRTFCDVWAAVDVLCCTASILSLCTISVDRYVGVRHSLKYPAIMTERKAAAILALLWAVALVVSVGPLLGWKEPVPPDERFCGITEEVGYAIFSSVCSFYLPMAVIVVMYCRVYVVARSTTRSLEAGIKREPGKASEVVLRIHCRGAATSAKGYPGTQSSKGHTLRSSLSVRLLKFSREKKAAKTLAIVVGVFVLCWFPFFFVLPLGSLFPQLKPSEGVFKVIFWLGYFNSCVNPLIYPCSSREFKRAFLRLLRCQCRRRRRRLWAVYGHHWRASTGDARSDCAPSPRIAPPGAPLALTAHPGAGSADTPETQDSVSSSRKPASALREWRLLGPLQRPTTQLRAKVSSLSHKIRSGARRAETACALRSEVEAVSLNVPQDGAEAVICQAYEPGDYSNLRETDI
Sequence (P43140 whole entry): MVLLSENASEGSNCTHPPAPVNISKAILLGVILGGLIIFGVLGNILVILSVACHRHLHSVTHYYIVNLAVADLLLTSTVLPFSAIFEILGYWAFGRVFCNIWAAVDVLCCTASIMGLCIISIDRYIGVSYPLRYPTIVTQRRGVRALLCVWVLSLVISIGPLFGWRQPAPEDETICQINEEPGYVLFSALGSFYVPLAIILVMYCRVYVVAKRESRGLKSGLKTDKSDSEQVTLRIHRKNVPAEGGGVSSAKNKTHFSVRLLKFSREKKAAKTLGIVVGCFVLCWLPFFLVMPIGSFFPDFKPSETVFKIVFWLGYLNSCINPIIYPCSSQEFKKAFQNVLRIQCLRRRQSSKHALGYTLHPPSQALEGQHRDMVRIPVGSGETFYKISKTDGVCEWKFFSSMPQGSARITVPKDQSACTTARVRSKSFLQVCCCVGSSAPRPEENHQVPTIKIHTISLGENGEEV
Test: Displacement of [3H]prazosin from rat cerebral cortex alpha-1 adrenergic receptor by liquid scintillation counting analysis
Type: tissue-based
So I've got a bunch of compounds here, and I need their pKi values.
Answers are plain numbers.

Cc1ccccc1N1CCN(CCN2CCCC2=O)CC1.Cl = 6.09

// input: 3 compounds below; output: pKi for each
1. Cl.O=C1CCCN1CCCCN1CCN(c2ccc(F)cc2F)CC1
2. COc1ccc(N2CCN(CCN3CCCC3=O)CC2)cc1.Cl
3. Cl.O=C1CCCN1CCCCN1CCN(c2ccccc2O)CC1

Response:
1. 6.77
2. 5.92
3. 6.44
